Assay: Bioavailability in Sprague-Dawley rat at 5 mg/kg by LC-MS/MS analysis
Type: ADME, organism-based
Conditions: in vivo
attributeMeasured: bioavailability
Please report the result as a number followed by the unit.

>>> valuemeasured("Cc1cc(-c2cnn3c(NCC4CCOCC4)cc(N[C@@H](C4CC4)C(C)(C)O)nc23)ccc1C(=O)NC1CC1")
"38%"
>>> valuemeasured("Cc1cc(-c2cnn3c(NC[C@H]4C[C@@](C)(O)C4)cc(Oc4cccnc4)nc23)ccc1C(=O)NC1CC1 [LUVIXASERTIB]")
"53%"
>>> valuemeasured("Cc1cc(-c2cnn3c(NCC4CC4)cc(NC4CCCC[C@H]4O)nc23)ccc1C(=O)NC1CC1 (single isomer, unassigned)")
"94%"

Field: next compound
The compound listed as Cc1cc(-c2cnn3c(NCCN4CCOCC4)cc(Oc4cccc(F)c4)nc23)ccc1C(=O)NC1CC1 has a reported bioavailability of 77%

Cited source: ChEMBL document CHEMBL4425165
